Source: patent US12371428B2

# study-target: KDR (phospho-KDR, VEGF165-stimulated HUVEC cells) (Homo sapiens (Human), UniProt P35968)
# Sequence (P35968 20-1356): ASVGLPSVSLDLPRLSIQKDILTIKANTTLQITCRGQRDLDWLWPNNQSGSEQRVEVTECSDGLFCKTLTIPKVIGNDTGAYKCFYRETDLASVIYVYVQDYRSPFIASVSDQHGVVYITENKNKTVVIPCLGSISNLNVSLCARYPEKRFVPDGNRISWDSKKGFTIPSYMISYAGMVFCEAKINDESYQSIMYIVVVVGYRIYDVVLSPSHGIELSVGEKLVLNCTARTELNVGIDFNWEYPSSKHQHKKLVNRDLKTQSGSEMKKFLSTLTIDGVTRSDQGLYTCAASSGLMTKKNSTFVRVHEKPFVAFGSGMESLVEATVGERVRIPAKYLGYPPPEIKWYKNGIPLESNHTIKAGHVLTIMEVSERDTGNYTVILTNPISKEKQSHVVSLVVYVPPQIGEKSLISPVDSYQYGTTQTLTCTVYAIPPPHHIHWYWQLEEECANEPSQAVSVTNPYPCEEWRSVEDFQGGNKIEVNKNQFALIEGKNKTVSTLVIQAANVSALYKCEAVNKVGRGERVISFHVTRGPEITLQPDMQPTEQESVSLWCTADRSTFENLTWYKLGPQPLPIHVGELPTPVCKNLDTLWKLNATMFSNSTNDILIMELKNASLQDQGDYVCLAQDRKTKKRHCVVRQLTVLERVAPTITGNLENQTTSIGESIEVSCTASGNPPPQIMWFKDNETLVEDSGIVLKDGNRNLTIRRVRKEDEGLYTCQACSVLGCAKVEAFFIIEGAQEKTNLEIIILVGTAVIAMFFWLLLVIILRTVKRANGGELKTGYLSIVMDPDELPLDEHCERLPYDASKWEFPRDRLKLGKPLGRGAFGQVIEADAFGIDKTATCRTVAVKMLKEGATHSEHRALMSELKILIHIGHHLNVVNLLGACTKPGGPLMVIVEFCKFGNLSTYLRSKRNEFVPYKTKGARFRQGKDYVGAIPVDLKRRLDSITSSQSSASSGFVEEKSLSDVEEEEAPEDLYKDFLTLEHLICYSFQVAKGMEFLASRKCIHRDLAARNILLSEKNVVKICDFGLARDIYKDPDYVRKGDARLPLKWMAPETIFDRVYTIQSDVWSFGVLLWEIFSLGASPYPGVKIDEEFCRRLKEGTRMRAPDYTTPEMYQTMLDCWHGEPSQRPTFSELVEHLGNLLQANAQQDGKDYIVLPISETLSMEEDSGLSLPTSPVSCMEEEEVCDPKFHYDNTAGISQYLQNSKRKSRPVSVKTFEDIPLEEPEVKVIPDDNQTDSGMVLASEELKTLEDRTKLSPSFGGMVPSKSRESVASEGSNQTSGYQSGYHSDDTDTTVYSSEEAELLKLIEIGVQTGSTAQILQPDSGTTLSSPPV
# assay-name: KDR autophosphorylation ELISA in HUVEC cells (Example G)
# Format: cell-based
# experimental-context: cellular activity; KDR autophosphorylation ELISA in HUVEC cells
pIC50: −log10 of the molar value.
quantity-measured: pIC50

Example entries begin here.
molecule="COc1cc2nccc(Oc3ccc(NC(=O)c4c(C)cc(C)n(-c5ccc(F)cc5C)c4=O)cc3F)c2nc1OC [Compound 298]" result="> 7.00"
molecule="CCn1cc(-c2ccc(F)cc2)c(=O)c(C(=O)Nc2ccc(Oc3ccnc4cc(OC)c(OC)nc34)c(F)c2)c1C [Compound 82]" result="6.52 to 7.00"
molecule="COc1cc2nccc(Oc3ccc(NC(=O)c4cn5c(c(-c6ccc(F)cc6C)c4=O)COCC5)cc3F)c2nc1OC [Compound 766]" result="< 6.52"
molecule="COc1cc2c(Oc3ccc(NC(=O)c4cn(C5CC5)c(C)c(-c5ccc(F)cc5)c4=O)cc3F)ccnc2cn1 [Compound 640]" result="< 6.52"
molecule="CCn1cc(C(=O)Nc2ccc(Oc3ccnc4cc(OC)c(OC)nc34)c(F)c2)c(=O)c(-c2ccc(F)cc2)c1 [Compound 116]" result="> 7.00"

Record COCCOc1cc2c(Oc3ccc(NC(=O)c4cn(C)c(C)c(-c5ccc(F)cc5)c4=O)cc3F)ccnc2nc1OC [Compound 760] . Reported pIC50: < 6.52

Record C=C(C)c1cnc2c(Oc3ccc(NC(=O)c4n[nH]c(C)c(-c5ccc(F)cc5C)c4=O)cc3F)ccnc2c1 [Compound 463] . Reported pIC50: > 7.00

Record COc1cc2c(Oc3ccc(NC(=O)c4cnc(C)n(-c5ccc(F)cc5)c4=O)cc3F)ccnc2cn1 [Compound 499] . Reported pIC50: 6.52 to 7.00

Record COc1ccc2nccc(Oc3ccc(NC(=O)c4cn(C)c(C)c(-c5ccc(F)cc5)c4=O)cc3)c2n1 [Compound 356] . Reported pIC50: < 6.52

Record COc1ccc2nccc(Oc3ccc(NC(=O)c4cn(C)c(C)c(-c5ccc(F)cc5)c4=O)cc3F)c2n1 [Compound 113] . Reported pIC50: < 6.52

====

pIC50 overview
# study-target: Mer (phospho-Mer, MERTK-transfected 293A cells) (Homo sapiens (Human))
# assay-name: Mer autophosphorylation ELISA in transient transfected 293A cells (Example H)
# Type: cell-based
# experimental-context: cellular activity; Mer autophosphorylation ELISA in transient transfected 293A cells
pIC50: −log10 of the molar value.

smiles_structure=CCOCc1nc(C)c(-c2ccc(F)cc2C)c(O)c1C(=O)Nc1ccc(Oc2ccnc3cc(OC)cnc23)c(F)c1 result="> 7.00"
smiles_structure=COc1cc2nccc(Oc3ccc(NC(=O)c4ccc(C)n(-c5ccc(F)cc5)c4=O)cc3F)c2nc1OC result="> 7.00"
smiles_structure=COCCOc1cnc2c(Oc3ccc(NC(=O)c4c(C)nc(C)c(-c5ccc(F)cc5C)c4O)cc3)ccnc2c1 result="> 7.00"

Record CCn1cc(C(=O)Nc2ccc(Oc3ccnc4cc(OC)c(OC)nc34)c(F)c2)c(=O)c(-c2ccc(F)cc2)c1 . Reported pIC50: > 7.00

Record COc1cc2nccc(Oc3ccc(NC(=O)c4c(C)c(C(C)=O)c(C)n(-c5ccc(F)cc5)c4=O)cc3F)c2nc1OC . Reported pIC50: > 7.00

Record COCCOc1cc2nccc(Oc3ccc(NC(=O)c4c(C)nc(C)c(-c5ccc(F)cc5C)c4O)cc3F)c2nc1OC . Reported pIC50: > 7.00

Record Cc1cc(C)n(-c2ccc(F)cc2)c(=O)c1C(=O)Nc1ccc(Oc2ccnc3cccnc23)c(F)c1 . Reported pIC50: > 7.00

====

pIC50 overview
# study-target: Human MET (residues 956-1390) (Homo sapiens (Human), UniProt P08581)
# Sequence (P08581 956-1390): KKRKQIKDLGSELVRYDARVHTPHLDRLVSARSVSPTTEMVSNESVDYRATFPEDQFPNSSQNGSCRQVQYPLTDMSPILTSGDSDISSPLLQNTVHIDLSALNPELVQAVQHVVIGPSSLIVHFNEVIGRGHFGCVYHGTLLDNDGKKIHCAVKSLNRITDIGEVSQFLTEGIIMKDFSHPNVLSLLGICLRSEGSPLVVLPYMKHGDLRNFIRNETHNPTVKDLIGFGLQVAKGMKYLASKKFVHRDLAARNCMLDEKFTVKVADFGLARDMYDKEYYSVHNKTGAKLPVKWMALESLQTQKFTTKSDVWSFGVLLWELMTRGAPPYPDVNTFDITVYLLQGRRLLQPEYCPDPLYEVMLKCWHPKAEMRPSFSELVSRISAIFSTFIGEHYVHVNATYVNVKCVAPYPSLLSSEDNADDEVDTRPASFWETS
# assay-name: Human Met kinase assay, HTRF KinEase (Example D-2)
# Type: biochemical
# experimental-context: protocol of Example D-2 (other compounds); read-out: c-Met IC50
# Description: Kinase activity and compound inhibition were also investigated using the HTRF® KinEase assay (Cisbio Cat #62TKOPEB) per manufacturer's instructions. […] After a 60 min incubation at room temperature, the fluorescence at 665 nm and 620 nm was read on an Envision microplate reader (Perkin Elmer). Kinase activity normalized to DMSO (100% activity) and reference compound at […] and (0% activity) was calculated using the fluorescence ratio 620/665×10,000. […]
pIC50: −log10 of the molar value.

smiles_structure=COc1ccc2nccc(Oc3ccc(NC(=O)c4ncc(C)n(-c5ccc(F)cc5)c4=O)cc3F)c2n1 result="> 7.00"
smiles_structure=Cc1ccc(C(=O)Nc2ccc(Oc3ccnc4ccc(OCCN5CCOCC5)nc34)c(F)c2)c(=O)n1-c1ccc(F)cc1 result="> 7.00"
smiles_structure=COc1ccc2nccc(Oc3ccc(NC(=O)c4ccc(C)n(-c5ccc(F)cc5)c4=O)cc3)c2n1 result="> 7.00"

Please examine the following record next.
Record COc1cc2nccc(Oc3ccc(NC(=O)c4cc(Br)c(C)n(-c5ccc(F)cc5)c4=O)cc3F)c2nc1OC . Reported pIC50: 6.52 to 7.00

====

# study-target: Human KDR (residues 790-1356) (Homo sapiens (Human), UniProt P35968)
# Sequence (P35968 790-1356): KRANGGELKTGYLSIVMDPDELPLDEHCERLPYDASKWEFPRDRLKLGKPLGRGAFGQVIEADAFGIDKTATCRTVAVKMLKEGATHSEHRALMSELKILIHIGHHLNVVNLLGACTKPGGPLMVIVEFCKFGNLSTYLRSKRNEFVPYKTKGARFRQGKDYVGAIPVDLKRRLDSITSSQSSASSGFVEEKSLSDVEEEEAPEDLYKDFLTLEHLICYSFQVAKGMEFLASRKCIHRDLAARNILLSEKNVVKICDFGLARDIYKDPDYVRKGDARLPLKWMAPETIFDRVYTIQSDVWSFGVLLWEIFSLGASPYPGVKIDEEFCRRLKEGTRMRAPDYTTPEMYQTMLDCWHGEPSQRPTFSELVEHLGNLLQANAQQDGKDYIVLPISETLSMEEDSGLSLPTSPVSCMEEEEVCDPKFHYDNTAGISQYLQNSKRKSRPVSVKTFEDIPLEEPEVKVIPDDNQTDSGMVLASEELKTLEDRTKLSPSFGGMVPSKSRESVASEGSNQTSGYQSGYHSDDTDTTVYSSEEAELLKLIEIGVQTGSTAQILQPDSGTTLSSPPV
# assay-name: Human KDR kinase assay, HTRF KinEase (Example B-2)
# Format: biochemical
# experimental-context: protocol of Example B-2 (other compounds)
pIC50: −log10 of the molar value.
pIC50 overview

smiles_structure=COc1cc2nccc(Oc3cc(F)c(NC(=O)c4cn(C)c(C)c(-c5ccc(F)cc5)c4=O)cc3F)c2nc1OC result="6.52 to 7.00"
smiles_structure=Cc1ncc(C(=O)Nc2ccc(Oc3ccnc4cc(F)cnc34)c(F)c2)c(O)c1-c1ccc(F)cc1 result="> 7.00"

Record COCc1nc(C)c(-c2ccc(F)cc2C)c(O)c1C(=O)Nc1ccc(Oc2ccnc3cc(OC)c(OC)nc23)cc1 . Reported pIC50: > 7.00

Record COc1cc2nccc(Oc3ccc(NC(=O)c4c(C)nc(OC)c(-c5ccc(F)cc5)c4OC)cc3F)c2nc1OC . Reported pIC50: < 6.52

====

# study-target: Human KDR (residues 790-1356) (Homo sapiens (Human))
# assay-name: Human KDR kinase assay, HTRF KinEase (Example B-2)
# Format: biochemical
# experimental-context: protocol of Example B-2
# Method: Kinase activity and compound inhibition were also investigated using the HTRF® KinEase assay (Cisbio Cat #62TKOPEB) per manufacturer's instructions. […] After a 60 min incubation at room temperature, the fluorescence at 665 nm and 620 nm was read on an Envision microplate reader (Perkin Elmer). Kinase activity normalized to DMSO (100% activity) and reference compound at […] and (0% activity) was calculated using the fluorescence ratio 620/665×10,000. […]
pIC50: −log10 of the molar value. Where a name gives a salt, the structure may show the parent alone.
quantity-measured: pIC50

molecule="COc1cnc2c(Oc3ccc(NC(=O)c4nn(C)c(C)c(-c5ccc(F)cc5C)c4=O)cc3)ccnc2c1 [Compound 514]" result="> 7.00"
molecule="Cc1nc(C)c(-c2ccc(F)cc2)c(O)c1C(=O)Nc1ccc(Oc2ccnc3cc(C(C)C)cnc23)c(F)c1 [Compound 595]" result="6.52 to 7.00"
molecule="COc1cc2c(Oc3ccc(NC(=O)c4ccc(C)n(-c5ccc(F)cc5)c4=O)cc3F)ccnc2cn1 [Compound 494]" result="6.52 to 7.00"
molecule="Cc1ncc(C(=O)Nc2ccc(Oc3ccnc4cc(C(C)C)cnc34)cc2)c(O)c1-c1ccc(F)cc1 [Compound 594]" result="< 6.52"
molecule="C=C(C)c1cnc2c(Oc3ccc(NC(=O)c4c(C)cc(C)n(-c5ccc(F)cc5)c4=O)cc3F)ccnc2c1 [Compound 457]" result="> 7.00"

Record Cc1ncc(C(=O)Nc2ccc(Oc3ccnc4cc(C(C)C)cnc34)c(F)c2)c(O)c1-c1ccc(F)cc1 [Compound 596] . Reported pIC50: < 6.52

Record Cc1nc2c(Oc3ccc(NC(=O)c4cn(C(C)C)c(C)c(-c5ccc(F)cc5)c4=O)cc3)ccnc2cc1-c1cnn(C(F)F)c1 [Compound 612, hydrochloride] . Reported pIC50: < 6.52

====

IC50 overview
# study-target: Mer (phospho-Mer, MERTK-transfected 293A cells) (Homo sapiens (Human), UniProt Q12866)
# Sequence (Q12866 21-999): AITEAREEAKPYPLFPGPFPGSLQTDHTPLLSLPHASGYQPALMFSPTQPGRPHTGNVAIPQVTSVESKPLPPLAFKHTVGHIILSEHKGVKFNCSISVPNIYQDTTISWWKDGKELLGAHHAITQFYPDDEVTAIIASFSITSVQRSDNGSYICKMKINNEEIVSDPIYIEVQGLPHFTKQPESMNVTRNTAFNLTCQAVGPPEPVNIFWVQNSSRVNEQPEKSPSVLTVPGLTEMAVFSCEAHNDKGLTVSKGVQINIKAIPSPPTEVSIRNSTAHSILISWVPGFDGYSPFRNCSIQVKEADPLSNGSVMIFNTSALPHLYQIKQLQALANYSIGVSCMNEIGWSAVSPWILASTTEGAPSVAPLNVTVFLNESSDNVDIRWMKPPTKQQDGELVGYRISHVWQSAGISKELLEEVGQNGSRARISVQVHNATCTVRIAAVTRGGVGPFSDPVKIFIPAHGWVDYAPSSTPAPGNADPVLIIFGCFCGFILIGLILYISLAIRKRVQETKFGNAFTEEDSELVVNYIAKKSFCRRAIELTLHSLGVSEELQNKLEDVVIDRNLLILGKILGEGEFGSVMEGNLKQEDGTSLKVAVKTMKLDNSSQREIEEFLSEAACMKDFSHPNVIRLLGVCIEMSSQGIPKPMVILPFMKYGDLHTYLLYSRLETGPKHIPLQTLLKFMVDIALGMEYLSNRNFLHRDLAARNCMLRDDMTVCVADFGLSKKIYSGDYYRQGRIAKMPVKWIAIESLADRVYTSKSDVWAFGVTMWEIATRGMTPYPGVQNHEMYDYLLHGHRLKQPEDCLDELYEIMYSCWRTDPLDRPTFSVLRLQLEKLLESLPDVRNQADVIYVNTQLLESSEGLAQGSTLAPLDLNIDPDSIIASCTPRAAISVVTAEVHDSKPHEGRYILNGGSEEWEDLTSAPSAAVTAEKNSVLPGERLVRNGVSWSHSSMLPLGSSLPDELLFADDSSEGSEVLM
# assay-name: Mer autophosphorylation ELISA in transient transfected 293A cells (Example H)
# Assay type: cell-based
# experimental-context: cellular activity; Mer autophosphorylation ELISA in transient transfected 293A cells
Where a name gives a salt, the structure may show the parent alone.

Example entries begin here.
compound="COc1cc2nccc(Oc3ccc(NC(=O)c4cn(C)cc(-c5cccc(F)c5)c4=O)cc3F)c2nc1OC [Compound 35, hydrochloride]" study_target="Mer (phospho-Mer, MERTK-transfected 293A cells) (Homo sapiens (Human), UniProt Q12866)" result="< 100 nM"
compound=COc1cc2nccc(Oc3ccc(NC(=O)c4cn(C(C)C)c(C)c(-c5ccc(F)c(Cl)c5)c4=O)cc3F)c2nc1OC study_target="Mer (phospho-Mer, MERTK-transfected 293A cells) (Homo sapiens (Human), UniProt Q12866)" result="< 100 nM"
compound=Cc1cc(F)ccc1-c1c(C)ncc(C(=O)Nc2ccc(Oc3ccnc4cc(C)c(F)nc34)c(F)c2)c1O study_target="Mer (phospho-Mer, MERTK-transfected 293A cells) (Homo sapiens (Human), UniProt Q12866)" result="< 100 nM"
compound=CNc1c(C(=O)Nc2ccc(Oc3ccnc4cc(OC)c(OC)nc34)c(F)c2)c(=O)c(-c2ccc(F)cc2)c(C)n1C study_target="Mer (phospho-Mer, MERTK-transfected 293A cells) (Homo sapiens (Human), UniProt Q12866)" result="< 100 nM"
compound=C=Cc1c(C)c(C(=O)Nc2ccc(Oc3ccnc4cc(OCCOC)c(OC)nc34)cc2)c(=O)n(-c2ccc(F)cc2)c1C study_target="Mer (phospho-Mer, MERTK-transfected 293A cells) (Homo sapiens (Human), UniProt Q12866)" result="< 100 nM"
compound=CCc1nc(C)c(-c2ccc(F)cc2C)c(O)c1C(=O)Nc1ccc(Oc2ccnc3cc(OC)cnc23)cc1 study_target="Mer (phospho-Mer, MERTK-transfected 293A cells) (Homo sapiens (Human), UniProt Q12866)" result="< 100 nM"

Record COc1cnc2c(Oc3ccc(NC(=O)c4cn(OC)cc(-c5ccc(F)cc5)c4=O)cc3F)ccnc2c1 . Reported IC50: < 100 nM
